test system: PPARg:RXRa IVT, anti-PPARg (NR concentration 270 nM, RXRa partner concentration 90 nM); assay: PBM binding z-score (relative to random genomic background probes); higher = stronger binding; sequences stand for … in GC…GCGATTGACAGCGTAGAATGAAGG
# label = fulfilled if PBM binding z-score >= 2 else not fulfilled

Before answering, review these 6 worked examples.
INSERT INTO measurements (input_sequence, tested_on, discrete_label) VALUES
  ('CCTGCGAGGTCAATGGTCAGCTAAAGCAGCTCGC', 'PPARg:RXRa IVT, anti-PPARg (NR concentration 270 nM, RXRa partner concentration 90 nM)', 'fulfilled'),
  ('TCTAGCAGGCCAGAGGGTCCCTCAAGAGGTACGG', 'PPARg:RXRa IVT, anti-PPARg (NR concentration 270 nM, RXRa partner concentration 90 nM)', 'not fulfilled'),
  ('TTACCAAGGTGAGCTGAGTTCGTTGATCCAACTC', 'PPARg:RXRa IVT, anti-PPARg (NR concentration 270 nM, RXRa partner concentration 90 nM)', 'not fulfilled'),
  ('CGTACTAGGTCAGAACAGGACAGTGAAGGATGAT', 'PPARg:RXRa IVT, anti-PPARg (NR concentration 270 nM, RXRa partner concentration 90 nM)', 'fulfilled'),
  ('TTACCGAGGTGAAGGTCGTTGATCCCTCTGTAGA', 'PPARg:RXRa IVT, anti-PPARg (NR concentration 270 nM, RXRa partner concentration 90 nM)', 'fulfilled'),
  ('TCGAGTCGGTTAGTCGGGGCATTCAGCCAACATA', 'PPARg:RXRa IVT, anti-PPARg (NR concentration 270 nM, RXRa partner concentration 90 nM)', 'not fulfilled');

Decide: is the reported value of PBM binding z-score for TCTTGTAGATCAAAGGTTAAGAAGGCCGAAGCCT equal to or greater than 2? fulfilled

Next sequence: GCGACTGGGGCAAAGCAGGTTACCATCAGGTTGG fulfilled

Next sequence: CCTAGAAGGCCAGGGTCACTCAAGCATTTCGCTT not fulfilled

Next sequence: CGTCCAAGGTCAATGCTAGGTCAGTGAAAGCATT fulfilled

Next sequence: ATATGTAGGTTATCGGTTCATTCAGTTTGCGCAT fulfilled

Next sequence: CAAACTAGGTCAAGAGGTCAATGTCCGCTTCCCG fulfilled

Next sequence: TCTTGTAGATCAAGCAGGTAAAGAAAGCCTGAGT not fulfilled

Next sequence: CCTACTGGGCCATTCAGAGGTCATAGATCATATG fulfilled

Next sequence: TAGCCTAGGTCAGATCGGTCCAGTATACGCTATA not fulfilled
